- Read-out: solute carrier (SLC22A1), SLC22A1 (gene 6580)
- protocol-description: LTEA_HepaRG_SLC22A1: Life Technologies and Expression Analysis (LTEA) Assay for solute carrier (SLC22A1) using HepaRG (AID 2283524)
- reported-conditions: mRNA level, 48 h; actives raise or lower the signal
The source made the active and inactive calls. How the source made its calls: active means hit-call score of the fitted dose curve at least 0.9, where 1 is the maximum; inactive means score below 0.9.
Valid outcomes are listed here; reply with one: active, inactive

# lookup: test call for COP(=S)(OC)Oc1ccc([N+](=O)[O-])cc1
inactive

# lookup: test call for O=C(Nc1ccccc1)Nc1cnns1
active

# lookup: test call for CCOC1Oc2ccc(OS(C)(=O)=O)cc2C1(C)C (centres undefined)
active

# lookup: test call for CCc1ccc(C(=O)NN(C(=O)c2cc(C)cc(C)c2)C(C)(C)C)cc1
inactive

# lookup: test call for O=S1OCC2C(CO1)C1(Cl)C(Cl)=C(Cl)C2(Cl)C1(Cl)Cl (centres undefined)
active

***
# lookup: test call for CCCN(CCC)c1c([N+](=O)[O-])cc(C(F)(F)F)cc1[N+](=O)[O-]
inactive

# lookup: test call for O=[N+]([O-])c1c(Cl)c(Cl)c(Cl)c(Cl)c1Cl
inactive

# lookup: test call for CN1CSC(=S)N(C)C1
inactive

# lookup: test call for O=C(O)COc1ccc(Cl)cc1Cl
inactive

---

- protocol-description: BSK_3C_Vis: BioMAP Diversity Plus: 3C Assay for Morphology Visualization (AID 2283025);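 further: fitted both ways so gain or loss versus DMSO counts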
- reported-conditions: primary human endothelial cells (HUVEC)
The source made the active and inactive calls. How the source made its calls: active means hit-call score of the fitted dose curve at least 0.9, where 1 is the maximum; inactive means score below 0.9.
Valid outcomes are listed here; reply with one: T for active, F for inactive

# lookup: test call for N#Cc1c(Cl)c(Cl)c(Cl)c(C#N)c1Cl
T

# lookup: test call for CNC(=O)/C=C(\C)OP(=O)(OC)OC
F

# lookup: test call for CNC(=O)CSP(=S)(OC)OC
F

# lookup: test call for O=C(O)COc1ccc(Cl)cc1Cl
F

***
# lookup: test call for O=C(Nc1ccccc1)Nc1cnns1
F

# lookup: test call for CNC(=O)Oc1ccccc1OC(C)C
F

# lookup: test call for CC(C)OC(=O)Nc1cccc(Cl)c1
F

# lookup: test call for Oc1cc(Cl)ccc1Oc1ccc(Cl)cc1Cl
T

# lookup: test call for CCCN(CCC)c1c([N+](=O)[O-])cc(C(F)(F)F)cc1[N+](=O)[O-]
T

# lookup: test call for COc1nn(CSP(=S)(OC)OC)c(=O)s1
F

---

- Read-out: matrix metalloproteinase-3 (MMP3), MMP3 (gene 4314)
- protocol-description: LTEA_HepaRG_MMP3: Life Technologies and Expression Analysis (LTEA) Assay for matrix metalloproteinase-3 (MMP3) using HepaRG (AID 2283519)
- reported-conditions: mRNA level, 48 h; actives raise or lower the signal
The source made the active and inactive calls. The calls were made as follows: active = hit-call score of the fitted dose curve at least 0.9, where 1 is the maximum; inactive = score below 0.9.
property-name: AC50

Consider the reported AC50 for these compounds:
Name the recorded AC50 of the item O=[N+]([O-])c1c(Cl)c(Cl)c(Cl)c(Cl)c1Cl in your answer.
50 µM (active)

Name the recorded AC50 of the item O=C(O)C(F)(F)C(F)(F)C(F)(F)C(F)(F)C(F)(F)C(F)(F)C(F)(F)F in your answer.
inactive

Name the recorded AC50 of the item O=C(Nc1ccccc1)Nc1cnns1 in your answer.
91.2 µM (active)

Name the recorded AC50 of the item CCC(C)Nc1c([N+](=O)[O-])cc(C(C)(C)C)cc1[N+](=O)[O-] (stereo not given) in your answer.
inactive

***
Name the recorded AC50 of the item CCC(C)(NC(=O)c1cc(Cl)c(C)c(Cl)c1)C(=O)CCl (stereo not given) in your answer.
inactive
